test.readout: IC50 (nM)
Reply with just the number (in nM).

**Q:** Give recorded IC50 with integrin β1A cytoplasmic domain : GST-Syk(6-370) (Homo sapiens, UniProt P43405) for the following molecule: CC(C)(O/N=C(\C(=O)N[C@@H]1C(=O)N2C(C(=O)[O-])=C(C[n+]3ccccc3)CS[C@H]12)c1csc(N)n1)C(=O)O
**A:** 1620

====

tested.target: integrin β3 cytoplasmic domain : tandem SH2 domains of Syk (GST-Syk(6-370)) (Homo sapiens, UniProt P43405)
Construct: the tandem SH2 domains of Syk (residues 6-370); made in house; host or cells: E. coli BL21(DE3)
experiment: AlphaScreen of integrin β3 cytoplasmic domain peptide binding to GST-Syk(6-370)
experimental.setup: biotinylated-b3(sh) peptide 30 nM, GST-Syk(6-370) 0.3 nM; read-out: value printed in Figure 3A, AlphaScreen dose-response (no measure name)
test.readout: pIC50
Interpret pIC50 as the negative base-10 log of the concentration measured in mol/L.

**Q:** Reported pIC50 for NC(=O)c1cc[n+](CC2=C(C(=O)O)N3C(=O)[C@@H](NC(=O)[C@@H](c4ccccc4)S(=O)(=O)[O-])[C@H]3SC2)cc1 : what is it?
**A:** 5.31

====

tested.target: integrin β3 cytoplasmic domain : tandem SH2 domains of Syk (GST-Syk(6-370)) (Homo sapiens)
Construct: the tandem SH2 domains of Syk (residues 6-370); made in house; host or cells: E. coli BL21(DE3)
experiment: AlphaScreen of integrin β3 cytoplasmic domain peptide binding to GST-Syk(6-370)
experimental.setup: as restated in the Discussion; read-out: IC50 in AlphaScreen assays
test.readout: pIC50
Interpret pIC50 as the negative base-10 log of the concentration measured in mol/L.

**Q:** Reported pIC50 for NC(=O)c1cc[n+](CC2=C(C(=O)O)N3C(=O)[C@@H](NC(=O)[C@@H](c4ccccc4)S(=O)(=O)[O-])[C@H]3SC2)cc1 : what is it?
**A:** 5.38

**Q:** Reported pIC50 for CC(C)(O/N=C(\C(=O)N[C@@H]1C(=O)N2C(C(=O)[O-])=C(C[n+]3ccccc3)CS[C@H]12)c1csc(N)n1)C(=O)O : what is it?
**A:** 6.00

====

tested.target: integrin β3 cytoplasmic domain : tandem SH2 domains of Syk (GST-Syk(6-370)) (Homo sapiens, UniProt P43405)
Construct: the tandem SH2 domains of Syk (residues 6-370); made in house; host or cells: E. coli BL21(DE3)
experiment: AlphaScreen of integrin β3 cytoplasmic domain peptide binding to GST-Syk(6-370)
experimental.setup: biotinylated β chain peptide 30 nM, GST-Syk(6-370) 0.3 nM; Figure 4A; read-out: antagonist activity against β3 (value without measure name), AlphaScreen
test.readout: IC50 (nM)
Reply with just the number (in nM).

**Q:** Reported IC50 for CC(C)(O/N=C(\C(=O)N[C@@H]1C(=O)N2C(C(=O)[O-])=C(C[n+]3ccccc3)CS[C@H]12)c1csc(N)n1)C(=O)O : what is it?
**A:** 1870

====

I'd be grateful if you could share measured pIC50 for these entries.
tested.target: integrin β3 cytoplasmic domain : tandem SH2 domains of Syk (GST-Syk(6-370)) (Homo sapiens)
Construct: the tandem SH2 domains of Syk (residues 6-370); made in house; host or cells: E. coli BL21(DE3)
experiment: AlphaScreen of integrin β3 cytoplasmic domain peptide binding to GST-Syk(6-370)
experimental.setup: Figure 3A: biotinylated-b3(sh) peptide 30 nM, GST-Syk(6-370) 0.3 nM; read-out: IC50, AlphaScreen dose-response
Interpret pIC50 as the negative base-10 log of the concentration measured in mol/L.

**Q:** Reported pIC50 for C=C1c2cccc(O)c2C(=O)C2=C(O)[C@]3(O)C(=O)C(C(N)=O)=C(O)[C@@H](N(C)C)[C@@H]3[C@@H](O)[C@H]12 : what is it?
**A:** 4.65

**Q:** Reported pIC50 for CC(C)(O/N=C(\C(=O)N[C@@H]1C(=O)N2C(C(=O)[O-])=C(C[n+]3ccccc3)CS[C@H]12)c1csc(N)n1)C(=O)O : what is it?
**A:** 5.99

**Q:** Reported pIC50 for NC(=O)c1cc[n+](CC2=C(C(=O)O)N3C(=O)[C@@H](NC(=O)[C@@H](c4ccccc4)S(=O)(=O)[O-])[C@H]3SC2)cc1 : what is it?
**A:** 5.31
